Values compiled from patent US20260234157A1.

Biological target: AR protein (Homo sapiens)
Construct: degradation activity of the compounds disclosed in the present disclosure on AR protein in VCaP cells; host or cells: VCaP
Assay: Degradation of AR protein in VCaP cells (Western blot)
Type: cell-based
Conditions: compound at 10 nM, 8 hours, read-out: Degradation rate of the AR protein in VCaP cells, 10 nM (%)

| Compound | inhibition at 0.01 µM |
| --- | --- |
| N#Cc1ccc(O[C@H]2CC[C@H](NC(=O)c3ccc(N4CCC5(CCC(N6CCC7(CC6)COc6c7ccc7c6CN(C6CCC(=O)NC6=O)C7=O)CC5)CC4)nn3)CC2)cc1Cl (some centres unmarked) | 80% |
| N#Cc1ccc(O[C@H]2CC[C@H](NC(=O)c3cnc(N4CCC5(CC4)COc4c5ccc5c4CN(C4CCC(=O)NC4=O)C5=O)nc3)CC2)cc1Cl (some centres unmarked) | -11% |
| N#Cc1ccc(O[C@H]2CC[C@H](NC(=O)c3ccc(N4CCC(C#N)(CN5CCC6(CC5)COc5c6ccc6c5CN(C5CCC(=O)NC5=O)C6=O)CC4)nn3)CC2)cc1Cl (some centres unmarked) | 37% |
| N#Cc1ccc(O[C@H]2CC[C@H](NC(=O)c3ccc(N4CC5(CC(N6CCC7(CCc8ccc9c(c8O7)CN(C7CCC(=O)NC7=O)C9=O)CC6)C5)C4)nn3)CC2)cc1Cl (some centres unmarked) | 51% |
| COc1cc(O[C@H]2C(C)(C)[C@H](NC(=O)c3ccc(N4CCC(C)(CN5CCC6(CCc7ccc8c(c7O6)C(=O)N(C6CCC(=O)NC6=O)C8=O)CC5)CC4)cc3)C2(C)C)ccc1C#N (some centres unmarked) | -26% |

====

Biological target: AR protein (Homo sapiens, UniProt P10275, T878A)
Construct: degradation activity of the compounds disclosed in the present disclosure on AR protein in LNCaP cells; host or cells: LNCaP FGC
Sequence (P10275 whole entry T878A): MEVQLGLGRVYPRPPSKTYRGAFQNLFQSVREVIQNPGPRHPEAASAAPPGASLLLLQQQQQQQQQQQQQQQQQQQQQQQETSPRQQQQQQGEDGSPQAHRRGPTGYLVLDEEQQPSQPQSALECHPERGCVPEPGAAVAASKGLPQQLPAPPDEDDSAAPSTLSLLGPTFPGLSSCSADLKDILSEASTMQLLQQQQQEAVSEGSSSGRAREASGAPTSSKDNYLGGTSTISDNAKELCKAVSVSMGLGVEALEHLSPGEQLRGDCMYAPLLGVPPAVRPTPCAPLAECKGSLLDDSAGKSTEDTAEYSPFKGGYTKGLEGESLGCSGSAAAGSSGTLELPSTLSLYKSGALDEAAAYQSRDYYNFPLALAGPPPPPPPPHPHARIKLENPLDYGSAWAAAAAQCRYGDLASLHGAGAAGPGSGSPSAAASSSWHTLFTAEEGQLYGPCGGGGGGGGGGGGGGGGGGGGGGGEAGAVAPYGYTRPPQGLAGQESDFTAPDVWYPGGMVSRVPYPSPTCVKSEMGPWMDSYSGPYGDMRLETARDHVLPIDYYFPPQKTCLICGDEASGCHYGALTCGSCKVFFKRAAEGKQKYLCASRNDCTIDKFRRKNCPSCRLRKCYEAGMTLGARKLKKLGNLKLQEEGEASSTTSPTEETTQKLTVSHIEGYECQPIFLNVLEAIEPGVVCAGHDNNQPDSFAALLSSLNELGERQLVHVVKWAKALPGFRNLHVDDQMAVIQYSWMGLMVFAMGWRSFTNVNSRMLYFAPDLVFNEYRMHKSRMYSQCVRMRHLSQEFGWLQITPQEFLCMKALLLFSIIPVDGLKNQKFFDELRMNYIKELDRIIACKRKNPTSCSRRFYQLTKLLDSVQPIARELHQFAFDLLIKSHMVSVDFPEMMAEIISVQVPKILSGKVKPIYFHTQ
Assay: Degradation of AR protein in LNCaP cells (Western blot)
Assay type: cell-based
Details: LNCaP cells, compound 10 nM, 8 hours, Western blot grayscale, GAPDH internal reference; read-out: Degradation rates of the AR protein in LNCaP cells, 10 nM (%)
inhibition at 0.01 µM values for the compounds below.
Property Name: inhibition at 0.01 µM

| Compound | Value Observed |
| --- | --- |
| CC1(C)[C@H](NC(=O)c2ccc(N3CCC(F)(CN4CCC5(CC4)COc4c5ccc5c4CN(C4CCC(=O)NC4=O)C5=O)CC3)nn2)C(C)(C)[C@H]1Oc1ccc(C#N)c(C(F)(F)F)c1 (some centres unmarked) | 6% |
| N#Cc1ccc(O[C@H]2CC[C@H](NC(=O)c3ccc(N4CCC5(CC4)CC(N4CCC6(CC4)COc4cc7c(cc46)C(=O)N(C4CCC(=O)NC4=O)C7=O)C5)nn3)CC2)cc1Cl (some centres unmarked) | 54% |
| COC1(CN2CC3(CCc4ccc5c(c4O3)C(=O)N(C3CCC(=O)NC3=O)C5=O)C2)CCN(c2ccc(C(=O)N[C@H]3CC[C@H](Oc4ccc(C#N)c(Cl)c4)CC3)nn2)CC1 (some centres unmarked) | 28% |
| COc1cc(O[C@H]2C(C)(C)[C@H](NC(=O)c3ccc(N4CCC(C)(CN5CCC6(CC5)COc5cc7c(cc5C6)C(=O)N(C5CCC(=O)NC5=O)C7=O)CC4)cc3)C2(C)C)ccc1C#N (some centres unmarked) | 27% |
| N#Cc1ccc(O[C@H]2CC[C@H](NC(=O)c3ccc(N4CCC(CN5CCC6(CCc7cc8c(cc7O6)C(=O)N(C6CCC(=O)NC6=O)C8)CC5)CC4)nn3)CC2)cc1Cl (some centres unmarked) | 85% |
